Reference for the values: ChEMBL document CHEMBL2010679

The reader will find IC50 measurements below, all made with Aromatase (Homo sapiens, UniProt P11511).
EXPERIMENTAL_ENDPOINT: IC50 (µM)

MOLECULE: O=C1c2ccccc2OC(O)C1c1ccccc1 (stereo not drawn)
TEST_TARGET: Aromatase (Homo sapiens, UniProt P11511)
IC50 [µM]: 170

MOLECULE: O=C1c2ccccc2OCC1c1ccc(O)cc1 (stereo not drawn)
TEST_TARGET: Aromatase (Homo sapiens, UniProt P11511)
IC50 [µM]: 160

---

Target: Aromatase (Homo sapiens)
Sequence (P11511 whole entry): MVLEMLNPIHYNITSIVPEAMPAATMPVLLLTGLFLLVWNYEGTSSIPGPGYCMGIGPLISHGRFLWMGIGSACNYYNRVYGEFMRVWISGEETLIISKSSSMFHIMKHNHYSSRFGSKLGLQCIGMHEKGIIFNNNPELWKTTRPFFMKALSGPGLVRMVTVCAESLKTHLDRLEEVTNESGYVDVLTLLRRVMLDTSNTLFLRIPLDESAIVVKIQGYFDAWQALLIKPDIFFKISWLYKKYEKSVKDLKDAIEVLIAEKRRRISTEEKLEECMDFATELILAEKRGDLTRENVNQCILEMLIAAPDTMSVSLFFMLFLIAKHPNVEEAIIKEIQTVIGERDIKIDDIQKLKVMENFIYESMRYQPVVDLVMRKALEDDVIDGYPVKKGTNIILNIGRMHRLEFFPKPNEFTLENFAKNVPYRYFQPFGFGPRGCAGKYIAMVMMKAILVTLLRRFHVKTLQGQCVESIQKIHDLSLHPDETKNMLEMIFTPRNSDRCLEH
Assay: Inhibition of human recombinant aromatase expressed in baculovirus/insect cells using 7-methoxy-trifluoromethylcoumarin as substrate after 30 mins by fluorescence-based spectrophotometry
Settings: read-out: IC50
EXPERIMENTAL_ENDPOINT: IC50 (µM)

Some molecules with recorded IC50:
MOLECULE: Cc1ccc2c(c1)C(=O)C(c1ccccc1)CO2 (racemic)
EXPERIMENTAL_ENDPOINT: IC50
DATA_VALUE: 44
--
MOLECULE: O=C1c2ccccc2OCC1c1cccnc1 (racemic)
EXPERIMENTAL_ENDPOINT: IC50
DATA_VALUE: 5.8
--
MOLECULE: O=C1c2ccccc2OCC1c1ccsc1 (racemic)
EXPERIMENTAL_ENDPOINT: IC50
DATA_VALUE: 30
--
MOLECULE: O=C1c2cc(F)ccc2OCC1c1ccccc1 (racemic)
EXPERIMENTAL_ENDPOINT: IC50
DATA_VALUE: 32
--
MOLECULE: O=C1c2c(ccc3ccccc23)OCC1c1ccccc1 (racemic)
EXPERIMENTAL_ENDPOINT: IC50
DATA_VALUE: 20
--
MOLECULE: Cc1ccc2c(c1)OCC(c1ccccc1)C2=O (racemic)
EXPERIMENTAL_ENDPOINT: IC50
DATA_VALUE: 18
--
MOLECULE: Cc1ccc(C2COc3ccccc3C2=O)cc1 (racemic)
EXPERIMENTAL_ENDPOINT: IC50
DATA_VALUE: 41
--
MOLECULE: CC(C)(C)c1ccc2c(c1)C(=O)C(c1ccccc1)CO2 (racemic)
EXPERIMENTAL_ENDPOINT: IC50
DATA_VALUE: 61

[A] COc1ccc(C2COc3ccccc3C2=O)cc1 (racemic)
[B] COc1cc(OC)cc(C2COc3ccccc3C2=O)c1 (racemic)
Enquiry: Which is greater in IC50, the first item A or the second item B ? Response format: the label of the selected entry.
Return: A

[P] O=C1c2cc(Br)ccc2OCC1c1ccccc1 (racemic)
[Q] O=C1c2ccccc2OCC1c1ccc(Oc2ccccc2)cc1 (racemic)
Enquiry: In terms of reported IC50, does P or Q have the smaller number? Response format: the label of the selected entry.
Return: Q

[A] COc1cccc(C2COc3ccccc3C2=O)c1 (racemic)
[B] O=C1c2cc(Cl)ccc2OCC1c1ccccc1 (racemic)
[C] COc1ccc2c(c1)OCC(c1ccccc1)C2=O (racemic)
Enquiry: List items by IC50 in falling order. Provide the labels, sequenced as the question asks.
Return: A, C, B
(A: 99 µM, C: 41 µM, B: 5.1 µM)

[1] COc1ccc2c(c1)C(=O)C(c1ccccc1)CO2 (racemic)
[2] COc1ccccc1C1COc2ccccc2C1=O (racemic)
[3] Cc1cccc(C2COc3ccccc3C2=O)c1 (racemic)
[4] O=C1c2ccccc2OCC1c1ccccc1 (racemic) [ISOFLAVANONE]
Enquiry: List items by IC50 in falling order. Provide the labels, sequenced as the question asks.
Return: 2, 4, 3, 1
(2: 97 µM, 4: 29 µM, 3: 20 µM, 1: 0.26 µM)
